biological target: MCP-1 receptor B (CCR2B) (Homo sapiens); construct: expressed in transfected cells; membrane fragments; experiment: hMCP-1 receptor binding assay (125I-MCP-1, CHO-CCR2B cell membranes); settings: competition with 100 pM labelled MCP-1, CHO-CCR2B membranes; read-out: IC50 in the hMCP-1 receptor binding assay
Sequence (P41597 1-360 isoform P41597-2): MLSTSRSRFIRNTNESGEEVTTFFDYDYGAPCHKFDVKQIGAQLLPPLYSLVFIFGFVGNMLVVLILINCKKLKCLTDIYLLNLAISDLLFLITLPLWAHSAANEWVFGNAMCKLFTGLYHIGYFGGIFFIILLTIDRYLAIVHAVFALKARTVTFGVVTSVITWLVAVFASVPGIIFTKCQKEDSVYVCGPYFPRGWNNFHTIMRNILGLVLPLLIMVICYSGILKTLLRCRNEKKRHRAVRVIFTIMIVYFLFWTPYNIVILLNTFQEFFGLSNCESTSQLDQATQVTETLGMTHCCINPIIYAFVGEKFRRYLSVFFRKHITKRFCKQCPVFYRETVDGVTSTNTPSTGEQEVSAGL

Compound	IC50, µM
O=C(NC1CCS(=O)(=O)C1)c1c(C(=O)O)n(Cc2ccc(Cl)c(Cl)c2)c2ccccc12 (stereo not shown)	6.86
